Measured growth inhibition of individual entries
ASSAY INFO: NCI Yeast Anticancer Drug Screen. Data for the mlh1 rad18 strain (AID 175)
CONDITION SUMMARY: S. cerevisiae mlh1 rad18 strain growth inhibition; at 50.0 µM; active compounds read high
This is part of a sample that, as a whole, favours compounds with a hit. Of some 79,000 tested, about 15% had one in any assay.
QUANTITY MEASURED: growth inhibition (%)

- COMPOUND: "Cn1cnc([N+](=O)[O-])c1Sc1nccn1-c1ccccc1"
  ASSAY RESULT: -2.85
- COMPOUND: "c1ccc(CC2(Cc3ccccc3)SCCS2)cc1"
  ASSAY RESULT: -6.05
- COMPOUND: "c1ccc(P(CCCP(c2ccccc2)c2ccccc2)c2ccccc2)cc1"
  ASSAY RESULT: -15.8
- COMPOUND: "Cc1nnnn1-c1ccc2ccccc2c1"
  ASSAY RESULT: 4.45
- COMPOUND: "Cc1cccc2c1Oc1ccccc1C2N1C(=O)/C(=C/c2ccc(Cl)c(Cl)c2)SC1=S (stereo unspecified)"
  ASSAY RESULT: 0.4
- COMPOUND: "COc1cccc(C)c1C(O)CC1CCCN1 (stereo unspecified)"
  ASSAY RESULT: 6.05
- COMPOUND: "O=[N+]([O-])c1cc(O)ccc1O"
  ASSAY RESULT: 12
- COMPOUND: "COc1cc(O)c(Cc2ccccc2O)c(O)c1C(=O)CCc1ccccc1"
  ASSAY RESULT: -7.9
- COMPOUND: "CCOC(=O)c1c(-c2ccccc2)n2c3c(cccc13)CC2"
  ASSAY RESULT: 27.5
- COMPOUND: "O=C(O)COc1ccccc1-c1ccccc1"
  ASSAY RESULT: -8.6
- COMPOUND: "Ic1cc2c(cc1CNCc1ccccc1)OCO2"
  ASSAY RESULT: 7.2
- COMPOUND: "Cc1nc(N)c(N2CCN(S(=O)(=O)N(Cc3ccccc3)Cc3ccccc3)CC2)c(=O)[nH]1"
  ASSAY RESULT: 3.95
- COMPOUND: "CCCCOC(=O)NC(=O)c1cc2cc(Br)cc(Br)c2oc1=O"
  ASSAY RESULT: -17.2
- COMPOUND: "CCOC(=O)CSc1ccnc(=O)[nH]1"
  ASSAY RESULT: -31.8
- COMPOUND: "CC(C)(C)CC(CC(C)(C)C)C(=O)O"
  ASSAY RESULT: 21.3
- COMPOUND: "c1ccc(-c2nc3ccccc3nc2-c2ccc(-c3nc4ccccc4nc3-c3ccccc3)cc2)cc1"
  ASSAY RESULT: -18.8
- COMPOUND: "C=Cc1ccc(C)[n+](C[Si](C)(C)O[Si](C)(C)C)c1"
  ASSAY RESULT: -20.7
- COMPOUND: "COC(=O)/C=C/C=C/C(=O)OC"
  ASSAY RESULT: 3.85
- COMPOUND: "CCCNS(=O)(=O)c1ccccc1C(=O)NC1CCCCC1"
  ASSAY RESULT: 22.2
- COMPOUND: "O=C(O)c1ccc(F)c([N+](=O)[O-])c1"
  ASSAY RESULT: 12.4
- COMPOUND: "Nc1ccc(S(=O)(=O)S(=O)(=O)c2ccc(N)cc2)cc1"
  ASSAY RESULT: -2.95
- COMPOUND: "CC(=Nc1cccc2ccccc12)c1c(O)cc(C)oc1=O"
  ASSAY RESULT: 14.1
- COMPOUND: "CN1C(c2ccncc2)=NCC12CCCCC2"
  ASSAY RESULT: -1.5
- COMPOUND: "C[N+]1(C)C/C(=C\\c2ccc(O)cc2)C(=O)/C(=C/c2ccc(O)cc2)C1"
  ASSAY RESULT: -14.2
- COMPOUND: "O=C1CC(=O)N2CCCCC2N1 (stereo unspecified)"
  ASSAY RESULT: -25.7
- COMPOUND: "OC1CCCSC1 (stereo unspecified)"
  ASSAY RESULT: 27.9
